System: constitutively active mTOR
Test: Test 3: TSC Assay (high content imaging of phospho-S6 (240/244) in TSC1−/− MEFs)
Type: cell-based
Settings: Mus musculus, pS6 240/244 staining, 2 hrs compound treatment
result_type: IC50 (nM)

{"molecule": "c1cc2ccc(-c3nc4c(N5CCOCC5)nc(N5CCOCC5)nc4[nH]3)cc2[nH]1 [Example 28]", "study_target": "constitutively active mTOR", "IC50 [nM]": 458}

A: C[C@H]1COCCN1c1nc(N2CCOCC2)nc2[nH]c(-c3ccc(F)c(CO)c3)nc12 [Example 4]
B: CC1(C)COCCN1c1nc(N2CCOCC2)nc2[nH]c(-c3cccc4[nH]ccc34)nc12 [Example 40]
C: C[C@H]1COCCN1c1nc(N2CCOC[C@@H]2C)c2nc(-c3ccc4cc[nH]c4c3)[nH]c2n1 [Example 14]
input: Sequence the entries by IC50, beginning with the highest number. Kindly provide the labels arranged according to the requested ordering.
output: A, B, C
